- TARGET UNDER TEST: Prm1 ZF domain (Pichia pastoris (Komagataella pastoris)) (UniProt C4R754)
- Sequence: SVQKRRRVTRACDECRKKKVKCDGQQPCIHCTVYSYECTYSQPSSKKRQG
- ASSAY DETAILS: EMSA
- CONDITION LABEL: EMSA: 50 mM Tris-HCl pH 8.0, 50 mM NaCl, 1 mM DTT, 0.05% NP-40, 50 ug/ml poly[d(I-C)], 5% glycerol, 30 min at 4 C; about 30 nM probe, 0-1 uM protein. …
QUANTITY NAME: binding

ATTTTTGAGCATTCGTCAATCAATACCAAACAAGACAAACGGTATGCCGACTTTTGGAAGTTTCTTTTTGACCAACTGGCCGTTAGCATTTCAACGAACCAAACTTAGTTCATCTTGGATGAGATCACGCTTTTGTCATATTAGGTTCCAAGACAGCGTTTAAACTGT (double strand) [PAOX1 W3]; binds
GTTCTTCCCGTTCCGCTCTATCCGATAAGAGGTTGGCTTCCGAGAAGGTTGGTAGTTGGAATGACGTACAAAATGTACAACAAAGCAGATGTTGTTTAGCGCGATCGCCCCAACCCCTCTTGTTGTTAGACAGTCTTATGCATATTTCGTAGACCCGGGACTGTACATTCGTCCGTCCTCAACCATTGGTCATTTGGTAC (double strand) [PMIT1-D]; binds

---

- TARGET UNDER TEST: Prm1 ZF domain (Pichia pastoris (Komagataella pastoris))
- Sequence: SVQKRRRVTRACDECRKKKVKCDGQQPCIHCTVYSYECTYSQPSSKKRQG
- ASSAY DETAILS: EMSA
- CONDITION LABEL: EMSA: 50 mM Tris-HCl pH 8.0, 50 mM NaCl, 1 mM DTT, 0.05% NP-40, 50 ug/ml poly[d(I-C)], 5% glycerol, 30 min at 4 C; about 30 nM probe, 0-1 uM protein. …
QUANTITY NAME: binding

GATAGCACTCTGGATTGATCAGAAACTTCATATCCGGAGACAGATACTTGTCTGTCTTGCATATGGGGCAATATTCTTCAGTATCCATCCGATGATTACGATTAGTATTAGGTTGATGAATAATCCATAATGGTCCCCTGATGGAATATGCTCGCGAAGA (double strand) [PPRM1-A]; binds
ACAGAATCTGGAGGTGTAAACACCGTCATTCCCTAATCTAAGTTTCTGTCCAGCCGTTTAGAAAGTTCCTCTTCGTCAATAAAGTTTAACTTTGAACGTGAGAGTTGAGCTAATCGGAAATACTCCCGAGAGCACACCCGAGCAGTGAAGCGGGGCATCATCAAAAGAATTAAGGGGTGCTGGGTGCGGATTGCGCGCAGTAGCTGGCATCAATGCCAAACGTAGAACTCATACATTCTCCTATCAGAATCATACGACATCGAGAGATACACCAGCCAGCACCACTTGAACACTCCCAAT (double strand) [PMIT1-A]; binds
TTGCTGTCAAGTAGGGGTTAGAACAGTTAAATTTTGATCATGAACGTTAGGCTATCAGCAGTATTCCCACCAGAATCTTGGAAGCATACAATGTGGAGACAATGCATAATCATCCAAAAAGCGGGTGTTTCCCCATTTGCGTTTCGGCACAGGTGCACCGGGGTTCAGAAGCGATAGAGAGACTGCGCTAAGCATTAATGAGATTATTTTTGAGCATTCGTCAAT (double strand) [PAOX1 W4]; binds
